# Test system: IGROV1 ovarian
# assayText: NCI-60 one-dose screen, 48 h (100 = growth as untreated, 0 = no growth, -100 = all killed)
# conditionInfo: 10 µM unless noted
The panel holds about 83,000 compounds, 20% with a hit somewhere; the sample as a whole holds those more often.

# compound, growth [%]
rows = [
    ("COc1ccc2[nH]c(O)c(N=NC(=O)c3ccc4nc(-c5ccc(Cl)cc5)[nH]c4c3)c2c1", 78.1),
    ("COc1ccc(-c2cc(C(=O)Oc3ccc(C=O)cc3OC)nn2-c2ccc(S(C)(=O)=O)cc2)cc1", 112),
    ("Cc1cc(=O)oc2cc(OCC(O)CNN3C(=O)c4cccc5c(N6CCN(C)CC6)ccc(c45)C3=O)ccc12 (centres undefined)", 109),
    ("O=CNc1cccc(-n2cnc3cc(-c4ccc(O)cc4)ccc32)c1", 44.3),
]

====

# System: MDA-MB-468 breast
# assayText: NCI-60 one-dose screen, 48 h
# conditionInfo: 10 µM unless noted
The panel holds about 83,000 compounds, 20% with a hit somewhere; the sample as a whole holds those more often. Activity calls are given as the source filed them. Rule for the calls: active = growth percent below 10; inactive = the rest.
Classes used: active, inactive

# compound, answerLabel
measured = [
    ("COC(=O)c1cc(C(=O)C(C)(C)C)n2c3ccccc3c3ccccc3c12", "inactive"),
    ("Cc1cc(C2(c3cc(C)c(OCC(O)CNc4c(C)n(C)n(-c5ccccc5)c4=O)cc3C(C)C)OC(=O)c3ccccc32)c(C(C)C)cc1OCC(O)CNc1c(C)n(C)n(-c2ccccc2)c1=O (centres undefined)", "active"),
    ("Nc1nnc(CS(=O)(=O)c2ccccc2)s1", "inactive"),
    ("CN1CCN(c2ccc3c4c(cccc24)C(=O)N(c2cccc(-c4nn(-c5ccccc5)cc4-c4nc5ccccc5s4)c2)C3=O)CC1", "inactive"),
]

====

# Tested on: DU-145 prostate
# assayText: NCI-60 one-dose screen, 48 h
# conditionInfo: 10 µM unless noted
About 83,000 compounds went through this panel and 20% of them were active in at least one assay; those are over-represented in the sample as a whole. Calls of active or inactive are those of the source. How the source made its calls: active means growth percent below 10; inactive means the rest.
Classes used: yes (1) for active, no (0) for inactive

# compound, testTarget, answerLabel
rows = [
    ("COC(=O)c1cc(C(=O)CBr)n2c1ccc1c3ccccc3ccc12", "DU-145 prostate", "no (0)"),
    ("c1ccc(CSc2nnc(-c3ccc4nc(-c5ccccc5)[nH]c4c3)o2)cc1", "DU-145 prostate", "no (0)"),
    ("COc1ccc(-c2nc3ccc(-c4nnc(SCC(=O)Nc5ccc(/C(C)=N\\O)cc5)o4)cc3[nH]2)cc1", "DU-145 prostate", "no (0)"),
    ("COc1ccc(NC(=O)Nc2nc3ccc([N+](=O)[O-])cc3s2)cc1", "DU-145 prostate", "no (0)"),
    ("C/C(=N\\Nc1ccc(S(N)(=O)=O)cc1)c1cnn(-c2cc(=O)[nH]c3ccc(Br)cc23)c1C", "DU-145 prostate", "no (0)"),
    ("Cc1nn(-c2ccccc2)c2nc(C)n(C(=O)N/N=C/c3cccc([N+](=O)[O-])c3)c(=O)c12", "DU-145 prostate", "no (0)"),
    ("O=C(c1ccc(Cl)cc1)C1[C@H](c2ccccc2Cl)[C@@H](c2ccccc2)NC12C(=O)Nc1ccccc12 (stereo partly specified)", "DU-145 prostate", "yes (1)"),
    ("O=C1/C(=C/c2cccc3c2OCO3)Cc2c(F)cc(Br)cc21", "DU-145 prostate", "no (0)"),
    ("Fc1cccc(CNc2nc(SCCN3CCOCC3)nc3c2cnn3CC(Cl)c2ccc(Br)cc2)c1 (stereo unspecified)", "DU-145 prostate", "no (0)"),
    ("Nc1nn2c(-c3cc4cc(Br)ccc4oc3=O)ccnc2c1N=Nc1ccccc1", "DU-145 prostate", "no (0)"),
    ("Cn1cc(-c2cc(N)n3nc(-c4c[nH]c5ccccc45)cc3n2)c2cc(Br)ccc21", "DU-145 prostate", "yes (1)"),
    ("Nc1cc2ccccc2c(=O)n1NC(=O)c1ccccc1", "DU-145 prostate", "no (0)"),
    ("O=C(N/N=C/c1c[nH]c2ccccc12)Nc1ccccc1Cl", "DU-145 prostate", "yes (1)"),
    ("Clc1ccc(-c2nc3c4c(-c5ccccc5)c(-c5ccccc5)n(Cc5ccccc5)c4ncn3n2)cc1", "DU-145 prostate", "no (0)"),
    ("Cc1ccc(C(C(=O)NC2CCCCC2)N(Cc2ccccc2Cl)C(=O)c2ccc(CN3CCOCC3)o2)o1 (stereo unspecified)", "DU-145 prostate", "no (0)"),
    ("CCCCCCCOc1ccc(S(=O)(=O)Nc2ccc(C)c(F)c2C(=O)O)cc1", "DU-145 prostate", "no (0)"),
]
